tgt: Melanocyte-stimulating hormone receptor (Homo sapiens, UniProt Q01726)
Sequence (Q01726 whole entry): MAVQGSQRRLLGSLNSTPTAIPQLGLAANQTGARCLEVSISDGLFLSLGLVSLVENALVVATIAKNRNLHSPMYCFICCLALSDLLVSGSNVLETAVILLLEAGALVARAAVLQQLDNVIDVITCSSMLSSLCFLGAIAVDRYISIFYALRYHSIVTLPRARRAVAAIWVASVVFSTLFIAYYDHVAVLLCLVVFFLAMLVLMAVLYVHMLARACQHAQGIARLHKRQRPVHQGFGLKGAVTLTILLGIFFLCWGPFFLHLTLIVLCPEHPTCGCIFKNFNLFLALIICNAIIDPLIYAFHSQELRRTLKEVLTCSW
experiment.notes: Inhibition of [125I]NDP-alpha-MSH binding to melanocortin-1 receptor expressed in HEK293 cells
Format: cell-based
metric.name: Ki (pM)
Field: numeric (pM). Do not append units.

Ask | Field: Ki (Melanocyte-stimulating hormone receptor (Homo sapiens, UniProt Q01726)). Entry: `H-GPYRMEHFRWGSPPKD-NH2`
Reply | 510

----------
tgt: Melanocortin receptor 3 (Homo sapiens)
metric.name: pKi
Units for pKi: none; it is -log10 of a concentration expressed in mol/L.

Answered cases to consult:
CSCC[C@H](NC(=O)[C@H](CCCNC(=N)N)NC(=O)[C@H](Cc1ccc(O)cc1)NC(C)=O)C(=O)N[C@@H](CCC(=O)O)C(=O)N[C@@H](Cc1cnc[nH]1)C(=O)N[C@H](Cc1ccccc1)C(=O)N[C@@H](CCCNC(=N)N)C(=O)N[C@@H](Cc1c[nH]c2ccccc12)C(=O)NCC(N)=O | 8.84
CC(=O)N[C@@H](Cc1ccc(O)cc1)C(=O)N[C@@H](CCCNC(=N)N)C(=O)N[C@H]1CSSC[C@@H](C(N)=O)NC(=O)[C@H](Cc2c[nH]c3ccccc23)NC(=O)[C@H](CCCNC(=N)N)NC(=O)[C@@H](Cc2ccc(Cl)cc2)NC(=O)[C@H](Cc2c[nH]cn2)NC(=O)[C@H](CCC(=O)O)NC1=O | 8.51
CC(=O)N[C@@H](CCCNC(=N)N)C(=O)N[C@H]1CSSC[C@@H](C(N)=O)NC(=O)[C@H](Cc2c[nH]c3ccccc23)NC(=O)[C@H](CCCNC(=N)N)NC(=O)[C@@H](Cc2ccccc2)NC(=O)[C@H](Cc2c[nH]cn2)NC(=O)[C@H](CCC(=O)O)NC1=O | 7.47
CSC[C@H](NC(=O)[C@H](Cc1c[nH]c2ccccc12)NC(=O)[C@H](CCCNC(=N)N)NC(=O)[C@@H](Cc1ccccc1)NC(=O)[C@H](Cc1cnc[nH]1)NC(=O)[C@H](CCC(=O)O)NC(=O)[C@H](CSC)NC(=O)[C@H](CCCNC(=N)N)NC(=O)[C@H](Cc1ccc(O)cc1)NC(C)=O)C(N)=O | 6.78
CC(=O)N[C@@H](Cc1ccc(O)cc1)C(=O)N[C@@H](CCCN=C(N)N)C(=O)N[C@H]1CSSC[C@@H](C(N)=O)NC(=O)[C@H](Cc2c[nH]c3ccccc23)NC(=O)[C@H](CCCN=C(N)N)NC(=O)[C@@H](Cc2ccc3ccccc3c2)NC(=O)[C@H](Cc2c[nH]cn2)NC(=O)[C@H](CCC(=O)O)NC1=O | 8.16
CSCC[C@H](NC(=O)[C@H](CCCNC(=N)N)NC(=O)[C@H](Cc1ccc(O)cc1)NC(C)=O)C(=O)N[C@@H](CCC(=O)O)C(=O)N[C@@H](Cc1cnc[nH]1)C(=O)N[C@H](Cc1ccccc1)C(=O)N[C@@H](CCCNC(=N)N)C(=O)N[C@@H](Cc1c[nH]c2ccccc12)C(=O)NCC(=O)N[C@@H](CO)C(=O)N1CCC[C@H]1C(=O)N1CCC[C@H]1C(=O)N[C@@H](CCCCN)C(=O)N[C@@H](CC(=O)O)C(N)=O | 9.96

Now, please, on to the next molecule.
Ask | Field: pKi (Melanocortin receptor 3 (Homo sapiens)). Entry: `CC(=O)N[C@@H](Cc1ccc(O)cc1)C(=O)N[C@@H](CCCNC(N)=O)C(=O)N[C@H]1CSSC[C@@H](C(N)=O)NC(=O)[C@H](Cc2c[nH]c3ccccc23)NC(=O)[C@H](CCCNC(=N)N)NC(=O)[C@@H](Cc2ccccc2)NC(=O)[C@H](Cc2c[nH]cn2)NC(=O)[C@H](CCC(=O)O)NC1=O`
Reply | 6.50

----------
tgt: Melanocortin receptor 3 (Homo sapiens, UniProt P41968)
Sequence (P41968 whole entry): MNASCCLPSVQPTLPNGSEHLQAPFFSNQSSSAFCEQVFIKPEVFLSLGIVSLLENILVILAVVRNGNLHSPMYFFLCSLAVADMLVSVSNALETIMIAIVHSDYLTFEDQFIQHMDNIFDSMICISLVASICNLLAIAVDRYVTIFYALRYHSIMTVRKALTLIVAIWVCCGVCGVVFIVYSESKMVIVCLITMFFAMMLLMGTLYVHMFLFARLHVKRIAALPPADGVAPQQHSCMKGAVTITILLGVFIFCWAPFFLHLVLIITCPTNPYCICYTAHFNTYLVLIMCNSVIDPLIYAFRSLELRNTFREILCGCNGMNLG
experiment.notes: Inhibition of [125I]-NDP-alpha-MSH binding to melanocortin-3 receptor expressed in HEK293 cells
Assay type: cell-based
metric.name: Ki
Your answer should be a number followed by the unit of measure.

Ask | Requested read-out: Ki. Entry: `H-GPYRMEHFRWGSPPKD-NH2`
Reply | 9.23 nM
